Each recorded value in this set is attributed to ChEMBL document CHEMBL5230103.

Let's look at some molecules and their measured pIC50.
- System: SW-620
- method_notes: Cytotoxicity against human SW620 cells assessed as inhibition of cell growth by SRB assay
- Assay type: functional, cell-based
pIC50: −log10 of the molar value.
observed_property: pIC50

INSERT INTO measurements (given_smiles, observed_property, reported_measurement) VALUES
  ('CO/N=C1\CN(Cc2ccc(/C=C/C(=O)NO)cc2)c2ccc(F)cc21', 'pIC50', 6.33),
  ('O=C(/C=C/c1ccc(CN2C/C(=N\O)c3cc(Cl)ccc32)cc1)NO', 'pIC50', 6.33);

###

- Tested on: MDA-MB-231
- method_notes: Cytotoxicity against human MDA-MB-231 cells assessed as inhibition of cell growth by MTT assay
- Format: functional, cell-based
Let's look at some molecules and their measured IC50.
observed_property: IC50 (µM)

INSERT INTO results (molecule, reported_measurement) VALUES
  ('O=C(CCC(=O)Nc1nnc(-c2ccc(O)cc2)s1)NO', 14.7),
  ('N#Cc1cccc(-c2cn(CCCCCCn3cccc(/C=C/C(=O)NO)c3=O)nn2)c1', 0.6),
  ('O=C(CCC(=O)Nc1nnc(-c2ccc(Cl)cc2)s1)NO', 14.7),
  ('O=C(CCCCCC(=O)N(Cc1ccc(Br)s1)c1ccc(OCCN2CCOCC2)cc1)NO', 0.62),
  ('CC(C)c1ccc(C(C)c2nnc(NC(=O)CCC(=O)NO)s2)cc1 (stereo not given)', 14.7);
